# measuredOn: SARS-CoV-2 spike protein on pseudotyped lentivirus (Wuhan Reference Pseudovirus) (SARS-CoV-2, UniProt P0DTC2 14-1273)
# procedureText: cell-based or functional assay
measurementType: infectivity % under 10 ug/mL VHH treatment (%)
Kindly answer with a numeric value in %, unit omitted.

Input line: Supply recorded infectivity % under 10 ug/mL VHH treatment for PP1141 MBP-4B0F-PAPA-R5d-D4-H6 (VHH, Form: Heptamer) VHH: QVQLVESGGGLVQPGGSLRLSCAASGSDFTINAMHWFRQAPGKQREFVATITSTSSTAYRDSVKGRFTISRDNAKNTVYLQMNSLKPEDTAVYYCAAFAVRDADTAGWTARDYWGQGTQVTVSS here.
Output line: 73.1

Input line: Supply recorded infectivity % under 10 ug/mL VHH treatment for PP1102 MBP-5HVZ-PAPA-RN-17-H6 (VHH, Form: Dimer) VHH: QVQLVESGGGLVQPGGSLRLSCAASGSMYSRAVMHWFRQAPGKEREGVASIGRTGDSYYADSVKGRFTISRDNAKNTVYLQMNSLKPEDTAVYYCAADNLDVVYGNRYWGQGTQVTVSS here.
Output line: 40.9

Input line: Supply recorded infectivity % under 10 ug/mL VHH treatment for PP1153 MBP-5HVZ-PAPA-R5d-D4-H6 (VHH, Form: Dimer) VHH: QVQLVESGGGLVQPGGSLRLSCAASGSDFTINAMHWFRQAPGKQREFVATITSTSSTAYRDSVKGRFTISRDNAKNTVYLQMNSLKPEDTAVYYCAAFAVRDADTAGWTARDYWGQGTQVTVSS here.
Output line: 81.7

Input line: Supply recorded infectivity % under 10 ug/mL VHH treatment for PP910 MBP-5HVZ-S2b-C10-H6 (VHH, Form: Dimer) VHH: QVQLVESGGGLVQPGGSLRLSCAASGSAFSLNYMAWFRQAPGKQREGVAIIGSGGSSDYADSVKGRFTISRDNAKNTVYLQMNSLKPEDTAVYYCAAQPNGSPDDFDYWGQGTQVTVSS here.
Output line: 65.1

Input line: Supply recorded infectivity % under 10 ug/mL VHH treatment for PP802 MBP-R2A-C5-H6 (VHH, Form: Monomer) VHH: QVQLVESGGGLVQPGGSLRLSCAASGTWGNIQYLSWFRQAPGKRREFVAAITPNNGTNYADSVKGRFTISRDNAKNTVYLQMNSLKPEDTAVYYCTAVLWYTTKEGPYDYWGQGTQVTVSS here.
Output line: 87.8

Input line: Supply recorded infectivity % under 10 ug/mL VHH treatment for PP927 MBP-5HVZ-R1i-C8-H6 (VHH, Form: Dimer) VHH: QVQLVESGGGLVQPGGSLRLSCAASGRQFGAWRMHWYRQAPGKQREWVAGITSGTSGNYADSVKGRFTISRDNAKNTVYLQMNSLKPEDTAVYYCAATSHTTYHAEYWGQGTQVTVSS here.
Output line: 45.4

Input line: Supply recorded infectivity % under 10 ug/mL VHH treatment for PP823 MBP-R5B-C3-H6 (VHH) VHH: QVQLVESGGGLVQPGGSLRLSCAASGGISVANVMHWFRQAPGKEREGVAGLTSEGSRYYADSVKGRFTISRDNAKNTVYLQMNSLKPEDTAVYYCAAEPTGNTHEFEYWGQGTQVTVSS here.
Output line: 65.5

Input line: Supply recorded infectivity % under 10 ug/mL VHH treatment for PP1176 MBP-5HVZ-PAPA-R2a-F3-H6 (VHH, Form: Dimer) VHH: QVQLVESGGGLVQPGGSLRLSCAASGSITSINWMHWFRQAPGKDREGVASISQTGRGSYADSVKGRFTISRDNAKNTVYLQMNSLKPEDTAVYYCAAASRTGTPYNYWGQGTQVTVSS here.
Output line: 58.4

Input line: Supply recorded infectivity % under 10 ug/mL VHH treatment for PP1131 MBP-4B0F-PAPA-R2b-D5-H6 (VHH, Form: Heptamer) VHH: QVQLVESGGGLVQPGGSLRLSCAASGYADEINMVHWYRQAPGKGREFVAAIASGGSTFYADSVKGRFTISRDNAKNTVYLQMNSLKPEDTAVYYCAAIPRPSLSYAHDYAYWGQGTQVTVSS here.
Output line: -0.01

Input line: Supply recorded infectivity % under 10 ug/mL VHH treatment for PP1115 MBP-5HVZ-PAPA-RN-31-H6 (VHH, Form: Dimer) VHH: QVQLVESGGGLVQPGGSLRLSCAASGSTGSDYAMHWFRQAPGKDREWVAGISSYGSDSYGDSVKGRFTISRDNAKNTVYLQMNSLKPEDTAVYYCAALQASAGAGYYYDYWGQGTQVTVSS here.
Output line: 86.9

Input line: Supply recorded infectivity % under 10 ug/mL VHH treatment for PP846 MBP-R5D-G6-H6 (VHH, Form: Monomer) VHH: QVQLVESGGGLVQPGGSLRLSCAASGRILAANIVHWYRQAPGKNREGVAGITSGGSTYYADSVKGRFTISRDNAKNTVYLQMNSLKPEDTAVYYCAAKPLGSPDDFDYWGQGTQVTVSS here.
Output line: 77.1

Input line: Supply recorded infectivity % under 10 ug/mL VHH treatment for PP1108 MBP-5HVZ-PAPA-RN-23-H6 (VHH, Form: Dimer) VHH: QVQLVESGGGLVQPGGSLRLSCAASGGEKSISAAHWYRQAPGKEREFVAAITAASTTSYADSVKGRFTISRDNAKNTVYLQMNSLKPEDTAVYYCTAVLYDSYDYWGQGTQVTVSS here.
Output line: 93.1

Input line: Supply recorded infectivity % under 10 ug/mL VHH treatment for PP885 MBP-R5b-C5-H6 (VHH, Form: Monomer) VHH: QVQLVESGGGLVQPGGSLRLSCAASGSPFKTQTVHWFRQAPGKGREWVASITSGSGTQYMDSVKGRFTISRDNAKNTVYLQMNSLKPEDTAVYYCAAANDGYGVDWGQGTQVTVSS here.
Output line: 101

Input line: Supply recorded infectivity % under 10 ug/mL VHH treatment for PP831 MBP-R5C-F3-H6 (VHH, Form: Monomer) VHH: QVQLVESGGGLVQPGGSLRLSCAASGTIPSINYTAWYRQAPGKQRELVASLTSGDNRYYTDSVKGRFTISRDNAKNTVYLQMNSLKPEDTAVYYCNAKTVGSSYRDSYNYWGQGTQVTVSS here.
Output line: 81.2

Input line: Supply recorded infectivity % under 10 ug/mL VHH treatment for PP880 MBP-R5a-B5-H6 (VHH, Form: Monomer) VHH: QVQLVESGGGLVQPGGSLRLSCAASGDDFIENAISWYRQAPGKGREWVAAVTLGGHSNYADSVKGRFTISRDNAKNTVYLQMNSLKPEDTAVYYCNYPVGIPAVAIDGRRSYGYWGQGTQVTVSS here.
Output line: 58
